Tested on: Streptococcus pyogenes
Assay: Antimicrobial activity against Streptococcus pyogenes MB-3124
Type: functional
Catalogue of MIC readings, one per entry.

Study these solved cases before continuing.
test_smiles=O=C(Cc1cccs1)N[C@@H]1C(=O)N2C(C(=O)O)=C(/C=N/O)CS[C@H]12 result_value="< 0.39 µg/mL"
test_smiles=O=C(Cc1cccs1)N[C@@H]1C(=O)N2C(C(=O)OC(c3ccccc3)c3ccccc3)=C(/C=N/NC(=O)c3ccccc3)CS[C@H]12 result_value="< 0.39 µg/mL"
test_smiles=COC(=O)c1cc(C2=C(C(=O)OC(c3ccccc3)c3ccccc3)N3C(=O)[C@@H](NC(=O)Cc4cccs4)[C@H]3SC2)nn1C result_value="< 0.39 µg/mL"

Would you mind telling me what MIC value was observed for `Cc1ccc(S(=O)(=O)[N-]/N=C/C2=C(C(=O)OC(c3ccccc3)c3ccccc3)N3C(=O)[C@@H](NC(=O)Cc4cccs4)[C@H]3SC2)cc1.[Li+]` ?
< 0.39 µg/mL
